The values you see were collected from PubChem BioAssay (NCATS).

# Test system: Nanoluciferase (engineered Oplophorus gracilirostris luciferase)
# protocol: Primary Nanoluciferase (NLuc) qHTS assay for identification of artifact compounds. (AID 1845222);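 note: NLuc secreted into diluted conditioned medium of S16 cells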
# test.conditions: NLuc-conditioned medium, Nano-Glo luminescence, 5 min; series mostly up to 54.1 µM
# Source text: PI: Alexander Tropsha Ph.D. UNC Eshelman School of Pharmacy University of North Carolina, Chapel Hill, North Carolina Hits from high-throughput screening (HTS) of chemical libraries are often false positives due to their interference with the assay detection technology. […] Using these curated datasets, we developed and validated several Quantitative Structure-Interference Relationship (QSIR) models to predict nuisance behavior. […] 6; Detection; Luminescence, ViewLux microplate reader. […]
Active and inactive are the calls of the source. Calls come from the whole dose curve; as a rule, active = well fitted inhibition curve with a large enough effect; inconclusive = small, poorly fitted or top-dose-only effect; inactive = flat fitted curve, though single readings scatter.
quantity.measured: activity, negative = inhibition

COc1ccc(-c2cnc3c(-c4cccc5ncccc45)cnn3c2)cc1: inactive
COC(=O)C[C@H]1C(C)(C)[C@H](OC(=O)c2ccccc2)C2CC3=C4CC(=O)O[C@@H](c5ccoc5)[C@]4(C)CCC3[C@@]1(C)C2=O (some centres undefined): inactive
CC1OC2OC(=O)C3(C)CC4C5(CO5)C5=CC(=O)OC(C)(C)C5=CC(=O)C4(C)C(C1=O)C23 (centres undefined): inactive
C=C1C(=O)O[C@@H]2/C=C(\C)CC/C=C(\C)CC[C@@H]12: inactive
